The measurements presented in this section are drawn from ChEMBL document CHEMBL1145797.

Experiment: Concentration to inhibit growth of normal rat K-ras-transformed cells (KNRK 5.2 cells) after 72 hr exposure
Assay type: functional
Define the label as True when IC50 is strictly less than 100 nM and as False in all remaining cases.

# example entries with known answers
CCOCCNC(=O)CO\N=C1/C=C/C=C\[C@H]2O[C@@H]2C[C@@H](C)OC(=O)c2c(O)cc(O)c(Cl)c2C1; False
C[C@@H]1C[C@H]2O[C@@H]2\C=C/C=C/C(=N\OCC(=O)NC2CCCC2)Cc2c(Cl)c(O)cc(O)c2C(=O)O1; True
C[C@@H]1C[C@H]2O[C@@H]2\C=C/C=C/C(=N\O)Cc2c(Cl)c(O)cc(O)c2C(=O)O1; True

In: Please let me know if `C[C@@H]1C[C@H]2O[C@@H]2\C=C/C=C/C(=N\OCC(=O)NCC2CCCCC2)Cc2c(Cl)c(O)cc(O)c2C(=O)O1` shows IC50 below 100 nM.
Out: False

In: Please let me know if `C[C@@H]1C[C@H]2O[C@@H]2\C=C/C=C/C(=N\OCC(=O)NCCO)Cc2c(Cl)c(O)cc(O)c2C(=O)O1` shows IC50 below 100 nM.
Out: False

In: Please let me know if `C[C@@H]1C[C@H]2O[C@@H]2\C=C/C=C/C(=N\OCC(=O)NCc2cccnc2)Cc2c(Cl)c(O)cc(O)c2C(=O)O1` shows IC50 below 100 nM.
Out: False

In: Please let me know if `C[C@@H]1C[C@H]2O[C@@H]2\C=C/C=C/C(=N\OCC(=O)N(CCO)CCO)Cc2c(Cl)c(O)cc(O)c2C(=O)O1` shows IC50 below 100 nM.
Out: False
